assay: Inhibition of CORO1A (unknown origin) incubated for 1 hr by colloidal coomassie staining based LC-MS/MS analysis
pIC50: −log10 of the molar value.
measuredQuantity: pIC50

Q: Reported pIC50 for "CCNC(=O)C[C@@H]1N=C(c2ccc(Cl)cc2)c2cc(OC)ccc2-n2c(C)nnc21" : what is it?
A: < 5.00

* * *

assay: Inhibition of TKT (unknown origin) incubated for 1 hr by colloidal coomassie staining based LC-MS/MS analysis
measuredQuantity: pIC50
Answer as the number alone; pIC50 is minus log10 of concentration in mol/L.

Q: Reported pIC50 for "CCNC(=O)C[C@@H]1N=C(c2ccc(Cl)cc2)c2cc(OC)ccc2-n2c(C)nnc21" : what is it?
A: 5.28
